quantity.name: melting point

{"compound": "CC(ON1C(C)(C)CC(O)CC1(C)C)C(=O)NCCCN(C)C (stereo not given)", "quantity.name": "melting point", "reading": "85 to 88 °C"}
{"compound": "CCOC1=NS(=O)(=O)C(C#N)=C1OCC", "quantity.name": "melting point", "reading": "147 to 148 °C"}
{"compound": "CC(C)(C)[Si](n1cc(Br)c2ncccc21)(C(C)(C)C)C(C)(C)C", "quantity.name": "melting point", "reading": "79 to 80 °C"}
{"compound": "O=C(NC(=O)c1c(F)cccc1Cl)Nc1ccc(S(=O)C(F)(F)C(F)F)cc1F (stereo not given)", "quantity.name": "melting point", "reading": "213 to 216 °C"}
{"compound": "CNc1nc(CCN2CCC(Nc3nc4ccccc4n3Cc3ccc(F)cc3)CC2)c(C)s1", "quantity.name": "melting point", "reading": "182 °C"}
{"compound": "O=C(CCC(=O)N1CCC(c2ccc(Cl)cc2)CC1)c1ccc2c(c1)CCN(C1CCCC1)CC2", "quantity.name": "melting point", "reading": "160 to 162 °C"}
{"compound": "CCCCOC(Cl)C(=O)NCC1OC(C)C(C)O1 (stereo not given)", "quantity.name": "melting point", "reading": "28 °C"}
{"compound": "COc1ccc(N2CCN(c3c(C)c(C)c4c(c3C)C(CN3CCCC3)C(C)(C)O4)CC2)cc1 (stereo not given)", "quantity.name": "melting point", "reading": "94 to 96 °C"}
{"compound": "CS(=O)(=O)n1ccc2cc3c(cc21)C(C#N)C3 (stereo not given)", "quantity.name": "melting point", "reading": "142 to 144 °C"}
{"compound": "CCOC(=O)Oc1ccc(S(=O)(=O)N2c3c(C)cccc3-n3cccc3C2CC)cc1 (stereo not given)", "quantity.name": "melting point", "reading": "104 °C"}
{"compound": "O=C1NCCc2c1c1cccc3c1n2CC3", "quantity.name": "melting point", "reading": "265 to 267 °C"}
{"compound": "COC(=O)c1cc(-c2ccncc2)ccc1C(=O)N1CCN(C(=O)OC(C)(C)C)CC1", "quantity.name": "melting point", "reading": "144 to 146 °C"}
{"compound": "Fc1ccc(-c2[nH]nc(Br)c2-c2ccncc2)cc1F", "quantity.name": "melting point", "reading": "285 to 290 °C"}
{"compound": "OCC(=C(c1ccc(F)cc1)c1ccc(F)cc1)n1nnnc1-c1ccccc1", "quantity.name": "melting point", "reading": "197 to 198 °C"}
{"compound": "OC(CC1CCN(Cc2ccccc2)CC1)c1ccc(F)cc1 (stereo not given)", "quantity.name": "melting point", "reading": "84 to 86 °C"}
{"compound": "CCCC[C@H](NC(=O)[C@H](CC(C)C)NC(=O)c1ccc(F)c(F)c1)C(=O)CSCc1ccco1", "quantity.name": "melting point", "reading": "94 to 100 °C"}
{"compound": "O=C1CC(c2cccc(-c3ocnc3C(=O)NCCO)c2)=Nc2ccc(-n3cccc3)cc2N1", "quantity.name": "melting point", "reading": "228 to 230 °C"}
{"compound": "CC(C)(C)[S@](=O)N1CCC[C@@H]1c1ccc(O)cc1", "quantity.name": "melting point", "reading": "150 °C"}
{"compound": "COC(=O)c1ccc(Cc2c[nH]c3ccc(C(=O)OC)cc23)c(OC)c1", "quantity.name": "melting point", "reading": "136 to 138 °C"}
{"compound": "CNc1ccc2cnc(C(=O)c3ccc([N+](=O)[O-])c(C(=O)OC)c3)n2c1", "quantity.name": "melting point", "reading": "183 °C"}
